experiment: ATG_NF_kB_CIS: Attagene CIS-FACTORIAL HepG2 Assay for human Nuclear Factor Kappa B (NF-kB) (AID 2282991); details: HepG2 Attagene cis-factorial NF-kB reporter mRNA; actives raise or lower the signal
Active and inactive are the calls of the source. Rule for the calls: active = hit-call score of the fitted dose curve at least 0.9, where 1 is the maximum; inactive = score below 0.9.
Outcomes: class 1 (active), class 0 (inactive)

| molecule | class-name |
| --- | --- |
| COc1ccccc1C=O | class 0 |
| O=c1[nH]cccc1O | class 0 |
| O=C(O)C(F)(F)C(F)(F)C(F)(F)C(=O)O | class 0 |
| CCc1cccc(C)c1N(C(=O)C(=O)O)C(C)COC (stereo not given) | class 0 |
| CCC(Cc1c(I)cc(I)c(N)c1I)C(=O)O (stereo not given) | class 0 |
| CCC(C)CO (stereo not given) | class 0 |
| OCCCc1cccnc1 | class 0 |
| CCN(CC)c1ccc2c(c1)Oc1cc(N(CC)CC)ccc1C21OC(=O)c2ccccc21 | class 0 |
| NS(=O)(=O)C(F)(F)C(F)(F)C(F)(F)C(F)(F)C(F)(F)C(F)(F)F | class 0 |
| CCOC(C=C(C)CCC=C(C)C)OCC | class 0 |
| O=C1OC(=O)c2ccc3c4c(ccc1c24)C(=O)OC3=O | class 0 |
| C=C(C)CCCC | class 0 |
| OCCCCC(F)(F)C(F)(F)C(F)(F)C(F)(F)F | class 0 |
| C=CC(=O)OCC(F)(F)C(F)(F)C(F)(F)COC(=O)C=C | class 1 |
| CC1=CCC(=O)O1 | class 0 |
| CC(C)=CCCC(C)O (stereo not given) | class 0 |
| O=C1C=CC(=O)N1c1ccccc1 | class 0 |
| O=C(O)C(F)(F)OC(F)(F)C(F)(F)OC(F)(F)C(F)(F)OC(F)(F)F | class 0 |
| OCC1CCCO1 (stereo not given) | class 0 |
| OCC(F)(F)C(F)(F)C(F)(F)C(F)(F)C(F)(F)C(F)(F)CO | class 0 |
| OCC(O)CC(F)(F)C(F)(F)C(F)(F)C(F)(F)C(F)(F)C(F)(F)C(F)(F)C(F)(F)F (stereo not given) | class 0 |
| OC(O)C(F)(F)C(F)(F)F | class 1 |
| CCN=C1C=CC(=C(c2ccc(N(CC)CC)cc2)c2ccc(N(CC)CC)cc2)c2ccccc21 | class 0 |
| C[Si](Cl)(Cl)CCC(F)(F)C(F)(F)C(F)(F)C(F)(F)C(F)(F)C(F)(F)F | class 0 |
| CCCCCCCCCCCCCCCCC | class 0 |
| COC(=O)c1ccc(C=O)cc1 | class 0 |
| Cc1ccc(O)cn1 | class 0 |
| O=S(=O)(OCC(F)(F)F)C(F)(F)C(F)(F)C(F)(F)C(F)(F)F | class 1 |
| O=S(=O)(Cl)C(F)(F)C(F)(F)C(F)(F)C(F)(F)C(F)(F)C(F)(F)C(F)(F)C(F)(F)F | class 0 |
| CCCCOC(=O)C(C)O (stereo not given) | class 0 |
| CC1=CC2C3C=CC(C3)C2C1C (stereo not given) | class 0 |
| O=S(=O)(O)CCC(F)(F)C(F)(F)C(F)(F)C(F)(F)C(F)(F)C(F)(F)C(F)(F)C(F)(F)F | class 0 |
| FC(F)(F)C(F)(F)C(F)(F)C(F)(F)C(F)(F)C(F)(F)C(F)(F)CCI | class 0 |
| CO[Si](CCCOCC1CO1)(OC)OC (stereo not given) | class 0 |
| NC(=O)C(F)(F)C(F)(F)C(F)(F)C(F)F | class 0 |
| O=C(O)CCC(F)(F)C(F)(F)C(F)(F)F | class 0 |
| O=C1c2ccccc2C(=O)c2c(Cl)cccc21 | class 1 |
| O=S(=O)(O)CCC(F)(F)C(F)(F)C(F)(F)C(F)(F)F | class 0 |
| NC(=O)C(F)(F)C(F)(F)C(F)(F)F | class 0 |
| NC(O)(C(F)(F)F)C(F)(F)F | class 0 |
| CCCCCCCC/C=C\CCCCCCCC(=O)N(C)CC(=O)O | class 0 |
| CCCCOC(=O)[C@H](C)O | class 0 |
| CSc1ccc(Cl)cc1 | class 0 |
| COCCC(=O)OC | class 0 |
| CC(C)CCCC(C)CCO (stereo not given) | class 0 |
| c1ccc(C[P+](c2ccccc2)(c2ccccc2)c2ccccc2)cc1 | class 0 |
| CCOC(=O)CC(=O)C(F)(F)C(F)(F)F | class 0 |
| O=C(O)C(F)(F)C(F)(F)C(F)(F)C(F)(F)C(F)(F)C(F)(F)C(F)F | class 0 |
| O=C(c1ccccc1)c1ccc(Cl)cc1 | class 0 |
| CCCCCCCCCCCC(=O)Cl | class 1 |
| C#CC(O)CCC (stereo not given) | class 0 |
| CC(C)C(=O)OCc1ccccc1 | class 0 |
| CCC(=O)OC(C)c1ccccc1 (stereo not given) | class 0 |
| CCCCCCCCCCCCC[N+](C)(C)Cc1ccccc1 | class 0 |
| CCOC(=O)CCC(C)=O | class 0 |
